Target: T1, human B7-H4 extracellular domain (human, UniProt Q7Z7D3 29-258);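 also: tested antibody premixed 1:1 with biotinylated parental antibody, 2 h at room temperature on coated ECD, bound biotin detected via streptavidin-HRP, absorbance read at 450 nm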
T1 construct: For SPR it says only human B7-H4 ECD; also called Hu B7-H4 ECD; huB7-H4 ECD
T1 sequence: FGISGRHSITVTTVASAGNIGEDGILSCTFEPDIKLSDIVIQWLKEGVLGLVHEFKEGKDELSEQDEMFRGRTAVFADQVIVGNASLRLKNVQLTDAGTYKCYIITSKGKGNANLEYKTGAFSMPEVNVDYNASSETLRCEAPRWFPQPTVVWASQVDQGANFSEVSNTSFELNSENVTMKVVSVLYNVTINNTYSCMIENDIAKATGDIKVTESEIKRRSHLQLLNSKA
Test: competition ELISA on coated huB7-H4 ECD; competitor biotinylated 0052 (by series, not given)
Measured IC50 by item
property_name: IC50 (nM)

* B7-H4 antibody 1080 (antibody, human IgG1, kappa, V domains shown) VH: EVQLVESGGGLVQPGGSLRLSCAVSGGSFSGYYWNWIRQPPGKGLEWIGEINHSGSATYNPSLKSRVTISVDTAKNSLYLQMNSLRAEDTAVYYCARGLYNWNVDHWGQGTLVTVSS VL: DIQMTQSPSSLSASVGDRVTITCRASQGIRNDLGWYQQKPGKAPKRLIYAASSLQSGVPSRFSGSGSGTDFTLTISSLQPEDFATYYCLQHNAYPRTFGGGTKVEIKR | 1.4
* B7-H4 antibody 0384 (antibody, human IgG1, kappa, V domains shown) VH: QVQLQQWGAGLLKPSETLPLTCAVYGGSFSGYYWNWIRQPPGKGLEWIGEINHSGSATYNPSLKSRVTISVDTSKNHFSLKLSSVTAADTAVYFCARGLYNWNVDHWGQGTLVTVSS VL: DIQMTQSPSSLSASVGDRVTITCRASQGIRNDLGWYQQKPGKAPKRLIYAASSLQSGVPSRFSGSGSGTDFTLTISSLQPEDFATYYCLQHSSYPRTFGGGTKVEIKR | 6.91
* B7-H4 antibody 1081 (antibody, human IgG1, kappa, V domains shown) VH: EVQLVESGGGLVQPGGSLRLSCAVSGGSFSGYYWNWIRQPPGKGLEWIGEIDHQGSTKYNPSLKSRVTISVDTAKNSFYLQMNSLRAEDTAVYYCARGLYNWNVDHWGQGTLVTVSS VL: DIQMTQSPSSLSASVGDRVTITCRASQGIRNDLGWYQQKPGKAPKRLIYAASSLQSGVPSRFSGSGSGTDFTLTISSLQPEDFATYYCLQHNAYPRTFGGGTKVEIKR | 3.5
